System: OVCAR-5
testProtocol: Growth inhibition of human OVCAR5 cells after 48 hrs by SRB protein assay
Format: functional
conditionParameters: OVCAR-5, 48 h
metricName: GI50

{"compound": "O=c1/c(=C/c2ccc(F)cc2)sc2ncnn12", "reportedMeasurement": "55 µM"}
{"compound": "COc1ccc(NC(=O)CC2Sc3ncnn3C2=O)cc1 (stereo unspecified)", "reportedMeasurement": "18.2 µM"}
{"compound": "O=C(CC1Sc2ncnn2C1=O)Nc1ccc(Br)cc1 (stereo unspecified)", "reportedMeasurement": "16.2 µM"}

Kindly give each listed record's GI50.
1. CCOC(=O)c1ccc(NC(=O)CC2Sc3ncnn3C2=O)cc1 (stereo unspecified)
2. O=c1/c(=C/c2ccc(Cl)cc2)sc2ncnn12
3. O=C(CC1Sc2ncnn2C1=O)Nc1ccc(Cl)cc1 (stereo unspecified)

1: 17 µM; 2: 20 µM; 3: 22.4 µM

###

System: HCT-15
testProtocol: Growth inhibition of human HCT15 cells after 48 hrs by SRB protein assay
Format: functional
conditionParameters: HCT-15, 48 h
Field: GI50. Provide a value for each of the molecules that follow.
Answers are plain numbers, in µM.

Recorded results for 6 molecules are shown here.
{"molecule": "O=C(CC1Sc2ncnn2C1=O)Nc1ccccc1 (configuration not stated)", "targetDesc": "HCT-15", "reportedMeasurement": 33.1}
{"molecule": "O=c1/c(=C/c2ccc(F)cc2)sc2ncnn12", "targetDesc": "HCT-15", "reportedMeasurement": 63.1}
{"molecule": "O=C(CC1Sc2ncnn2C1=O)Nc1ccc(Br)cc1 (configuration not stated)", "targetDesc": "HCT-15", "reportedMeasurement": 14.8}
{"molecule": "O=c1/c(=C/c2ccc(Cl)cc2)sc2ncnn12", "targetDesc": "HCT-15", "reportedMeasurement": 12}
{"molecule": "CCOC(=O)c1ccc(NC(=O)CC2Sc3ncnn3C2=O)cc1 (configuration not stated)", "targetDesc": "HCT-15", "reportedMeasurement": 20.9}
{"molecule": "COc1ccc(NC(=O)CC2Sc3ncnn3C2=O)cc1 (configuration not stated)", "targetDesc": "HCT-15", "reportedMeasurement": 24.5}

Find GI50 (HCT-15) for the entry O=C(CC1Sc2ncnn2C1=O)Nc1ccc(Cl)cc1 (configuration not stated)
15.8

###

Test system: HOP-92
testProtocol: Growth inhibition of human HOP92 cells after 48 hrs by SRB protein assay
Format: functional
conditionParameters: HOP-92, 48 h, read-out: Log TGI (converted)
Field: TGI. Provide a value for each of the molecules that follow.
Give bare numbers, in µM.

Recorded results for 4 molecules are shown here.
{"molecule": "O=C(CC1Sc2ncnn2C1=O)Nc1ccc(Cl)cc1 (stereo unspecified)", "TGI, µM": 64.6}
{"molecule": "O=C(CC1Sc2ncnn2C1=O)Nc1ccccc1 (stereo unspecified)", "TGI, µM": 66.1}
{"molecule": "O=C(CC1Sc2ncnn2C1=O)Nc1ccc(Br)cc1 (stereo unspecified)", "TGI, µM": 49}
{"molecule": "COc1ccc(NC(=O)CC2Sc3ncnn3C2=O)cc1 (stereo unspecified)", "TGI, µM": 49}

Shifting focus to the molecule that follows.
What value of TGI has been reported for the following molecule? CCOC(=O)c1ccc(NC(=O)CC2Sc3ncnn3C2=O)cc1 (stereo unspecified)
47.9

###

System: NCI-H522
testProtocol: Growth inhibition of human NCI-H522 cells after 48 hrs by SRB protein assay
Format: functional
conditionParameters: NCI-H522, 48 h, read-out: Log TGI (converted)
TGI strictly under 60 µM means 1.0; at 60 µM or over means 0.0.

{"compound": "O=c1/c(=C/c2ccc(F)cc2)sc2ncnn12", "class": 0.0}
{"compound": "COc1ccc(NC(=O)CC2Sc3ncnn3C2=O)cc1 (stereo unspecified)", "class": 1.0}
{"compound": "O=C(CC1Sc2ncnn2C1=O)Nc1ccccc1 (stereo unspecified)", "class": 1.0}
{"compound": "O=C(CC1Sc2ncnn2C1=O)Nc1ccc(Cl)cc1 (stereo unspecified)", "class": 0.0}
{"compound": "O=c1/c(=C/c2ccc(Cl)cc2)sc2ncnn12", "class": 1.0}

Now consider the entry below.
Record O=C(CC1Sc2ncnn2C1=O)Nc1ccc(Br)cc1 (stereo unspecified) : is its TGI strictly below 60 µM?
1.0
